- ASSAY_NOTES: qHTS for Inhibitors of binding or entry into cells for Marburg Virus; also: % is scaled to controls: 0 for no effect and ±100 for the full control effect
- COND: Marburg virus pseudotype entry/binding inhibition, cell-based; series mostly up to 49.2 µM
The whole screen tested about 18,000 compounds, of which about 1,200 (6.7%) were called active. Roughly 16% stayed inconclusive and do not appear here. The full list was thinned out, with actives kept by preference.
MEASURED_QUANTITY: activity change, negative = inhibition

Recorded results for 5 compounds are shown here.
COMPOUND | MEAS_VALUE
FCOC(C(F)(F)F)C(F)(F)F | inactive
C=C/C1=C/Cc2ccccc2[C@H](C[N+](=O)[O-])C(C(=O)OC)(C(=O)OC)C1 | inactive
CC(C)(C)OC(=O)NCCCCC1=CC2=CC(=O)C(C)(OC(=O)c3cccs3)C(=O)C2=CO1 (stereo not given) | inactive
COc1ccc([C@H]2C[C@@H](n3cc(COC(=O)c4ccccc4)nn3)[C@H](O)CN2C(=O)c2cccs2)cc1 | inactive
CCN1C(=S)NC(c2cccc(C(F)(F)F)c2)C(C(=O)OC)=C1C (stereo not given) | 95.8% [at 8.59 µM] (inactive)

Form: compound = CCOCCOC(=O)C(C)Oc1ccc(Oc2ncc(C(F)(F)F)cc2Cl)cc1 (stereo not given) ; activity change, negative = inhibition = inactive

Form: compound = CC(=O)C1=C(C)N(Cc2ccccc2)C(=O)NC1c1cccs1 (stereo not given) ; activity change, negative = inhibition = 3.55% [at 8.59 µM] (inactive)

Form: compound = O=S1(=O)CCSCCN1Cc1ccccc1F ; activity change, negative = inhibition = inactive

Form: compound = COC(=O)CC=C[C@@H](C)[C@H](NC(=O)OCC(Cl)(Cl)Cl)c1ccccc1 ; activity change, negative = inhibition = 0.224% [at 8.59 µM] (inactive)

Form: compound = CC(C)(CO)CNC(=O)c1ccc2[nH]c(O)c(N=Nc3ccc(S(N)(=O)=O)cc3)c2c1 ; activity change, negative = inhibition = inactive

###

- ASSAY_NOTES: qHTS for Inhibitors of binding or entry into cells for Marburg Virus; also: % is scaled to controls: 0 for no effect and ±100 for the full control effect
- COND: Marburg virus pseudotype entry/binding inhibition, cell-based; series mostly up to 49.2 µM
Screen size: about 18,000 compounds; about 1,200 (6.7%) were called active. Inconclusive results (about 16%) are left out. Shown is part of a subset that was picked to be rich in actives.
MEASURED_QUANTITY: activity change, negative = inhibition

COMPOUND | MEASURED_QUANTITY | MEAS_VALUE
CCOC(=O)CN1C(=O)NC(c2cccs2)C(C(=O)OC)=C1C (stereo not given) | activity change, negative = inhibition | -16.9% [at 8.59 µM] (inactive)
C=CCN1C(=O)N(Cc2ccccc2)c2ccccc2S1(=O)=O | activity change, negative = inhibition | inactive
COC(=O)C1(C(C)=O)CC2=CC[C@H]3C(=O)N(c4ccccc4)C(=O)[C@H]3[C@@H]2Cc2ccccc2[C@@H]1C[N+](=O)[O-] (stereo not given in full) | activity change, negative = inhibition | inactive
Cc1cnc(C)c(-c2cc(F)c3c(c2)CC(CNC(=O)c2cccc(Cn4cccn4)c2)O3)n1 (stereo not given) | activity change, negative = inhibition | inactive

Form: compound = CCCC[C@]12Cc3cc(C#N)ccc3[C@H](O1)c1c(cc(-c3ccccc3)oc1=O)O2 ; activity change, negative = inhibition = 9.58% [at 8.59 µM] (inactive)

Form: compound = CC(=O)N1CCN(Cc2cc(=O)oc3cc(C)ccc23)CC1 ; activity change, negative = inhibition = inactive

Form: compound = Cc1cccc([C@H]2[C@@H]3C=CC[C@@H](C)[C@@H]3C(=O)N2Cc2ccccc2)c1 ; activity change, negative = inhibition = inactive

Form: compound = CC[C@H](C)[C@H](NC(=O)[C@H](CCCNC(=N)N)NC(=O)[C@H](CCCNC(=N)N)NC(=O)[C@H](CC(C)C)NC(=O)[C@H](Cc1ccccc1)NC(=O)CNC(=O)CNC(=O)[C@@H](N)Cc1ccc(O)cc1)C(=O)N[C@@H](CCCNC(=N)N)C(=O)N1CCC[C@H]1C(=O)N[C@@H](CCCCN)C(=O)N[C@@H](CC(C)C)C(=O)N[C@@H](CCCCN)C(=O)N[C@@H](Cc1c[nH]c2ccccc12)C(=O)N[C@@H](CC(=O)O)C(=O)N[C@@H](CC(N)=O)C(=O)N[C@@H](CCC(N)=O)C(=O)O ; activity change, negative = inhibition = inactive

Form: compound = CC(Nc1oc(-c2ccccc2)nc1-c1ccccc1)c1ccccc1 (stereo not given) ; activity change, negative = inhibition = inactive

Form: compound = O=S1(=O)CC(N2CCN(CCO)CC2)CN1C1CCCC1 (stereo not given) ; activity change, negative = inhibition = inactive

###

- ASSAY_NOTES: qHTS for Inhibitors of binding or entry into cells for Marburg Virus; also: % is scaled to controls: 0 for no effect and ±100 for the full control effect
- COND: Marburg virus pseudotype entry/binding inhibition, cell-based; series mostly up to 49.2 µM
The whole screen tested about 18,000 compounds, of which about 1,200 (6.7%) were called active. Roughly 16% stayed inconclusive and do not appear here. The entries come from a sample that favours actives as a whole. Bridge positions count the residues as written; N and C are the ends. Peptide text beside a SMILES is read from it.
MEASURED_QUANTITY: activity change, negative = inhibition

COMPOUND | MEASURED_QUANTITY | MEAS_VALUE
CC(C)(C)Nc1oc(-c2ccccc2)nc1C=Cc1ccccc1 | activity change, negative = inhibition | 3.65% [at 8.59 µM] (inactive)
CCOC(OCC)OCC | activity change, negative = inhibition | inactive
CC[C@H]1C[C@H](C=CCC(C(=O)OC)C(=O)OC)OP(=O)(OC)O1 (stereo partly specified) | activity change, negative = inhibition | inactive
C[C@@H](O)[C@@H]1NC(=O)[C@H](CCCCN)NC(=O)[C@H](Cc2c[nH]c3ccccc23)NC(=O)[C@H](Cc2ccccc2)NC(=O)[C@H](Cc2ccccc2)NC(=O)[C@H](CC(N)=O)NC(=O)[C@H](CCCCN)NC(=O)[C@@H](NC(=O)[C@@H]2CCCN2)CSSC[C@@H](C(=O)N[C@@H](CCCCN)C(=O)O)NC(=O)[C@H](CO)NC(=O)[C@H](CO)NC(=O)[C@H](Cc2ccccc2)NC1=O (H-PCKNFFWKTFSSCK-OH; disulfide 2-13) | activity change, negative = inhibition | inactive
C[C@H](CO)NS(=O)(=O)c1ccc(Br)cc1F | activity change, negative = inhibition | inactive

Switching to the query record.
Form: compound = CC(C)NC[C@H](O)c1ccc2ccccc2c1 ; activity change, negative = inhibition = inactive

###

- ASSAY_NOTES: qHTS for Inhibitors of binding or entry into cells for Marburg Virus; also: % is scaled to controls: 0 for no effect and ±100 for the full control effect
- COND: Marburg virus pseudotype entry/binding inhibition, cell-based; series mostly up to 49.2 µM
Out of some 18,000 compounds screened, about 1,200 (6.7%) were called active. Roughly 16% stayed inconclusive and do not appear here. The entries come from a sample that favours actives as a whole.
MEASURED_QUANTITY: activity change, negative = inhibition

Recorded results for 9 compounds are shown here.
COMPOUND | activity change, negative = inhibition
COCCNc1ncnc2ccc(-c3ccccc3CN(C)C)cc12 | inactive
CCOC(=O)[C@@]12C3[C@@H](CCN3C(=O)N[C@@H]1c1ccccc1)[C@@H]2C (stereo not given in full) | -11.3% [at 8.59 µM] (inactive)
CC(=O)OC[C@H]1O[C@H](C#CC2=CCCCC2)C=C[C@H]1OC(C)=O | -20.8% [at 8.59 µM] (inactive)
C=CCCN(Cc1ccccc1)S(=O)(=O)c1ccccc1Br | inactive
COc1cc2c(cc1OC)[C@@H]1O[C@](CCCCN3C(=O)c4ccccc4C3=O)(C2)Oc2c1c(=O)oc1ccc(F)cc21 | 2.42% [at 8.59 µM] (inactive)
COc1ccccc1CNc1ncnc2ccc(-c3c(C)noc3C)cc12 | inactive
CCCCC/C=C\C/C=C\C/C=C\CCCCC(=O)NCC(=O)O | inactive
CC(=O)OC[C@H]1O[C@H](C#Cc2ccccc2)C=C[C@@H]1OC(C)=O | 21% [at 8.59 µM] (inactive)
C=C(C)C(=O)c1ccc(F)cc1 | inactive

Form: compound = COc1ccc2c(c1)O[C@@H](c1ccc3c(c1)OCO3)[C@H](OC(=O)NCc1ccco1)C2=O ; activity change, negative = inhibition = inactive

###

- ASSAY_NOTES: qHTS for Inhibitors of binding or entry into cells for Marburg Virus; also: % is scaled to controls: 0 for no effect and ±100 for the full control effect
- COND: Marburg virus pseudotype entry/binding inhibition, cell-based; series mostly up to 49.2 µM
About 1,200 (6.7%) of roughly 18,000 compounds were called active. About 16% were inconclusive and are not listed. The sample as a whole holds a higher share of actives than the screen did.
MEASURED_QUANTITY: activity change, negative = inhibition

Recorded results for 5 compounds are shown here.
COMPOUND | activity change, negative = inhibition
COC(=O)[C@@]1(C=C[C@@H](C)[C@H](OC)c2ccccc2Br)[C@@H]2Oc3ccccc3[C@@H]21 | 4.01% [at 8.59 µM] (inactive)
COc1ccccc1C1CN(CCNC(=O)C2=CCCC2)Cc2ccccc2O1 (stereo not given) | inactive
CC1=C2[C@@H](O)[C@H]([C@@H](C)C(=O)NCCC(C)C)CC[C@@]2(C)C=CC1=O | inactive
COc1ccc(-c2nc(-c3ccccc3)oc2Nc2ccc3ccccc3c2)cc1 | inactive
O=C(O)C[C@@H]1NC(=O)[C@H](Cc2ccccc2)NC1=O | inactive

Form: compound = Nc1ncnc2c1ncn2C1CC(O)C(CO)O1 (stereo not given) ; activity change, negative = inhibition = inactive

Form: compound = COc1ccc2[nH]cc(CCNc3nc(-c4cccc(NS(C)(=O)=O)c4)nc4ccccc34)c2c1 ; activity change, negative = inhibition = inactive
